assay: Metabolic stability in human liver microsomes; details: human liver microsomes, 3 μM
METRIC: CLint ± SEM (μL/min/mg protein)

MOLECULE	VALUE_OBSERVED
COCCOCCOCCOCCOCCOCCOC(=O)NC(C(=O)NC(Cc1ccccc1)C(O)CN(Cc1ccc(-c2ccccn2)cc1)NC(=O)C(NC(=O)OC)C(C)(C)C)C(C)(C)C (centres unmarked) [mono-mPEG6-Atazanavir]	112
COCCOCCOCCOC(=O)NC(C(=O)NC(Cc1ccccc1)C(O)CN(Cc1ccc(-c2ccccn2)cc1)NC(=O)C(NC(=O)OC)C(C)(C)C)C(C)(C)C (centres unmarked) [mono-mPEG3-Atazanavir]	172
COCCOCCOCCOCCOCCOc1ccc(C[C@H](NC(=O)O[C@H]2CO[C@H]3OCC[C@H]32)C(O)CN(CC(C)C)S(=O)(=O)c2ccc(N)cc2)cc1 (some centres unmarked) [mPEG5-O-Darunavir]	198
COCCOCCOCCOCCOCCNc1ccc(S(=O)(=O)N(CC(C)C)CC(O)[C@H](Cc2ccccc2)NC(=O)O[C@H]2CO[C@H]3OCC[C@H]32)cc1 (some centres unmarked) [mPEG5-N-Darunavir]	440
COCCOCCOCCOc1ccc(C[C@H](NC(=O)O[C@H]2CO[C@H]3OCC[C@H]32)C(O)CN(CC(C)C)S(=O)(=O)c2ccc(N)cc2)cc1 (some centres unmarked) [mPEG3-O-Darunavir]	77.4

----------
tested on: PBMCs; assay: PBMC macromolecule synthesis (tritiated precursor incorporation); format: cell-based, human; details: protein synthesis
METRIC: Leucine Incorporation (PBMC) TC50 (µM)

COMPOUND	RESULT_UNITS	READING_QUALIFIER	VALUE_OBSERVED
CC(C)CN(C[C@@H](O)[C@H](Cc1ccccc1)NC(=O)O[C@H]1CO[C@H]2OCC[C@H]21)S(=O)(=O)c1ccc(N)cc1 [Darunavir, reference compound]	µM	=	258.3
COCCOCCOCCOc1ccc(C[C@H](NC(=O)O[C@H]2CO[C@H]3OCC[C@H]32)C(O)CN(CC(C)C)S(=O)(=O)c2ccc(N)cc2)cc1 (stereo partly shown)	µM	=	218.9
COCCOCCOCCOC(=O)NC(C(=O)NC(Cc1ccccc1)C(O)CN(Cc1ccc(-c2ccccn2)cc1)NC(=O)C(NC(=O)OC)C(C)(C)C)C(C)(C)C (stereo not shown)	µM	=	82.0
COCCOCCOCCOCCOCCNc1ccc(S(=O)(=O)N(CC(C)C)CC(O)[C@H](Cc2ccccc2)NC(=O)O[C@H]2CO[C@H]3OCC[C@H]32)cc1 (stereo partly shown)	µM	=	98.5
COC(=O)N[C@H](C(=O)N[C@@H](Cc1ccccc1)[C@@H](O)CN(Cc1ccc(-c2ccccn2)cc1)NC(=O)[C@@H](NC(=O)OC)C(C)(C)C)C(C)(C)C [Atazanavir, reference compound]	µM	=	94.7
COCCOCCOCCOCCOCCOc1ccc(C[C@H](NC(=O)O[C@H]2CO[C@H]3OCC[C@H]32)C(O)CN(CC(C)C)S(=O)(=O)c2ccc(N)cc2)cc1 (stereo partly shown)	µM	>	400.0

----------
assay: Microsomal protein binding by equilibrium dialysis; assay type: in vitro ADME; conditions: human liver microsomes, read-out: Microsomal Protein Binding Fu ± SD
The reader will find reported fraction unbound at 3 μM values listed item by item below.
METRIC: fraction unbound at 3 μM

COMPOUND	VALUE_OBSERVED
CCC[C@@]1(CCc2ccccc2)CC(O)=C([C@H](CC)c2cccc(NS(=O)(=O)c3ccc(C(F)(F)F)cn3)c2)C(=O)O1 [Tipranavir, reference compound]	0.302
COCCOCCOCCOC(=O)NC(C(=O)NC(Cc1ccccc1)C(O)CN(Cc1ccc(-c2ccccn2)cc1)NC(=O)C(NC(=O)OC)C(C)(C)C)C(C)(C)C (stereo not drawn) [mono-mPEG3-Atazanavir]	0.852
COC(=O)N[C@H](C(=O)N[C@@H](Cc1ccccc1)[C@@H](O)CN(Cc1ccc(-c2ccccn2)cc1)NC(=O)[C@@H](NC(=O)OC)C(C)(C)C)C(C)(C)C [Atazanavir, reference compound]	0.846
